- TARGET: T1, recombinant human HER2 extracellular domain protein (human, UniProt P04626 23-652)
- T1 construct: range 23-652; Range is printed for the immunogen/panning protein; also called ErbB2; recombinant HER2 protein
- TEST DESCRIPTION: BLI, Protein A capture
REPORTED METRIC: koff (s⁻¹)
Output spec: scalar in s⁻¹, unitless text.

Answered cases to consult:
2126-Hu-H29 (antibody, IgG1, V domains shown, IgG1/Cκ) VH: QVQLVQSGSELKKPGASVKVSCKASGYTFTDYSMHWVRQAPGQGLEWMGWINTITGEPTYADDFKGRFVFSLDTSVSTAYLQISSLKAEDTAVYFCVRVGRYDYAMDYWGQGTTVTVSS VL: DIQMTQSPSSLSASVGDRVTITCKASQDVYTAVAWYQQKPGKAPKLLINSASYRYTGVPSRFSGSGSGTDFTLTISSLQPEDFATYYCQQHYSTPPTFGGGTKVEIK ... 0.000246
2126-Hu-H54 (antibody, IgG1, V domains shown, IgG1/Cκ) VH: QVQLVQSGSELKKPGASVKVSCKASGYTFTDYSMHWVRQAPGQGLEWMGWINTETGEPTYADDFKGRFVFSLDTSVSTAYLQISSLKAEDTAVYFCVRVGRGDYAMDYWGQGTTVTVSS VL: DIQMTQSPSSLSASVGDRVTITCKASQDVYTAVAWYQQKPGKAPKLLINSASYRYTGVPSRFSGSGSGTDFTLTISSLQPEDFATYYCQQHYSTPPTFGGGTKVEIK ... 0.000936
2126-Hu-H44 (antibody, IgG1, V domains shown, IgG1/Cκ) VH: QVQLVQSGSELKKPGASVKVSCKASGYTFTDYSMHWVRQAPGQGLEWMGWINTETGEPTYADDFKGRFVFSLDTSVSTAYLQLSSLKAEDTAVYFCVRVGRYDYAMDYWGQGTTVTVSS VL: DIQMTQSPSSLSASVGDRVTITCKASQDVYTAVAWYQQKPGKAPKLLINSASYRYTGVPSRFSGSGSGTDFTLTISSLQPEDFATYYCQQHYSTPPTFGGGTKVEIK ... 0.000562
2126-Hu-H33 (antibody, IgG1, V domains shown, IgG1/Cκ) VH: QVQLVQSGSELKKPGASVKVSCKASGYTFTDYSMHWVRQAPGQGLEWMGWINTETGEPTYADKFKGRFVFSLDTSVSTAYLQISSLKAEDTAVYFCVRVGRYDYAMDYWGQGTTVTVSS VL: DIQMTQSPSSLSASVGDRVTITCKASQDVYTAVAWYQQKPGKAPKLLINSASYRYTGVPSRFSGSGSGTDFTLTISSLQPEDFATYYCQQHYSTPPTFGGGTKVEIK ... 0.00031

Record 2126-Hu-H25 (antibody, IgG1, V domains shown, IgG1/Cκ) VH: QVQLVQSGSELKKPGASVKVSCKASGYTFTDYSMHWVRQAPGQGLEWMGWINTNTGEPTYADDFKGRFVFSLDTSVSTAYLQISSLKAEDTAVYFCVRVGRYDYAMDYWGQGTTVTVSS VL: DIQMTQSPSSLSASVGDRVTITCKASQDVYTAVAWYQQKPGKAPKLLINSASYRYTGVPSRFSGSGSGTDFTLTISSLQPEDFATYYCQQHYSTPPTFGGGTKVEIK . Reported koff: 0.000749

Record 2126-Hu-L06 (antibody, IgG1, V domains shown, IgG1/Cκ) VH: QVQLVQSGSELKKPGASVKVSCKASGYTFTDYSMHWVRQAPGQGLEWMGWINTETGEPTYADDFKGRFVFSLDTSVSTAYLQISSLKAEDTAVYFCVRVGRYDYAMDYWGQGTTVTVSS VL: DIQMTQSPSSLSASVGDRVTITCKASQDVYTAVAWYQQKPGKAPKLLINAASYRYTGVPSRFSGSGSGTDFTLTISSLQPEDFATYYCQQHYSTPPTFGGGTKVEIK . Reported koff: 0.000659
